Measured values drawn from patent US11596639B2 for this set.

target: Mcl-1 (Homo sapiens (Human), UniProt Q07820); experiment: Fluorescence polarization anisotropy (FPA) competition assay, FITC-Bak or FITC-Bim BH3 peptide; assay type: binding; conditions: read-out: Ki for Inhibition of Mcl-1 by FPA assay
Sequence (Q07820 172-327): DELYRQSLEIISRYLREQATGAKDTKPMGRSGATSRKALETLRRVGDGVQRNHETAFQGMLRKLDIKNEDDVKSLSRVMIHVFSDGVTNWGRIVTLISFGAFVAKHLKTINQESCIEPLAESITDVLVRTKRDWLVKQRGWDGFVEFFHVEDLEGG
pKi: −log10 of the molar value.
Endpoint Name: pKi

// solved cases for pKi follow
| Chemical String | Value Measured |
| --- | --- |
| Cc1cc(OCCCc2c3n(c4c(-c5c(C)nc(CN(C)C)nc5C)c(Cl)ccc24)[C@H](C)CN(c2cn(C)c4ccc(C(=O)O)cc24)C3=O)cc(C)c1Cl | > 9.00 |
| Cc1cc(OCCCc2c3n(c4c(-c5c(C)nn(C)c5C)c(Cl)ccc24)[C@H](C)CN(c2cn(C)c4cc(-c5nnco5)ccc24)C3=O)cc(C)c1Cl | 8.43 |

The molecule listed as Cc1nc(Cn2c(C(=O)O)cc3cccc(N4C[C@@H](C)n5c(c(CCCOc6cc(C)c(Cl)c(C)c6)c6ccc(Cl)c(-c7c(C)nn(C)c7C)c65)C4=O)c32)no1 shows pKi equal to > 9.00

---

target: UniProt:Q07820; assay: Fluorescence polarization anisotropy (FPA) competition assay, FITC-Bak or FITC-Bim BH3 peptide; assay type: binding; conditions: read-out: Ki for Inhibition of Mcl-1 by FPA assay
Endpoint Name: Ki (nM)
Your answer should be a plain number; it is taken to be in nM.

| Molecule | Assayed Target | Unit Descriptor | Value Measured |
| --- | --- | --- | --- |
| Cc1cc(OCCCc2c3n(c4c(-c5c(C)nn(C)c5C)c(Cl)ccc24)CCCN(c2cc4c(c(C(=O)O)c2)OCCO4)C3=O)cc(C)c1Cl [Example 25] | UniProt:Q07820 | nM | 1.1 |
| Cc1cc(OCCCc2c3n(c4c(-c5c(C)nn(C)c5C)c(Cl)ccc24)[C@H](C)CN(c2cn(C)c4cc(C(F)(F)F)ccc24)C3=O)cc(C)c1Cl [Example 199] | UniProt:Q07820 | nM | 12 |
| COc1ccnc(-c2ccc3c(c2)c(N2C[C@@H](C)n4c(c(CCCOc5cc(C)c(Cl)c(C)c5)c5ccc(Cl)c(-c6c(C)nn(C)c6C)c54)C2=O)cn3C)n1 [Example 464] | UniProt:Q07820 | nM | 3.5 |
| CC[C@@H]1Cn2c(c(CCCOc3cc(C)c(Cl)c(C)c3)c3ccc(Cl)c(-c4c(C)nn(C)c4C)c32)C(=O)N1Cc1ccc(C(=O)O)cn1 [Example 20] | UniProt:Q07820 | nM | 2.5 |

UniProt:Q07820 data for Cc1cc(OCCCc2c3n(c4c(-c5c(C)nn(C)c5C)c(Cl)ccc24)[C@H](C)CN(c2cn(C)c4c(-c5nnn(C)n5)cccc24)C3=O)cc(C)c1Cl [Example 362] ; its Ki: 1.7

---

List of pKi values.
molecular target: UniProtKB Q07820; assay: Fluorescence polarization anisotropy (FPA) competition assay, FITC-Bak or FITC-Bim BH3 peptide; type: binding; conditions: read-out: Ki for Inhibition of Mcl-1 by FPA assay
// pKi: -log10(molar conc.)

| Compound | pKi |
| --- | --- |
| Cc1cc(OCCCc2c3n(c4c(-c5c(C)nn(C)c5C)c(Cl)ccc24)[C@H](C)CN(c2cn(C)c4ccc(C(F)(F)F)cc24)C3=O)cc(C)c1Cl (single isomer, unassigned) [Example 200] | 8.18 |
| Cc1cc(OCCCc2c3n(c4c(-c5c(C)nn(C)c5C)c(Cl)ccc24)[C@H](C)CN(c2nccc4cc(C(N)=O)ccc24)C3=O)cc(C)c1Cl | 8.00 |
| Cc1cc(OCCCc2c3n(c4c(-c5c(C)nn(C)c5C)c(Cl)ccc24)[C@H](C)CN(c2cn(C)c4ccc(-c5ccn(C)n5)cc24)C3=O)cc(C)c1Cl | 8.82 |
| Cc1cc(OCCCc2c3n(c4c(-c5c(C)nn(C)c5C)c(Cl)ccc24)CCCN(c2ccc4cnoc4c2)C3=O)cc(C)c1Cl | 8.32 |
| Cc1cc(OCCCc2c3n(c4c(-c5c(C)nn(C)c5C)c(Cl)ccc24)[C@H](C)CN(c2cn(C)c4ccc(-c5n[nH]c(=O)o5)cc24)C3=O)cc(C)c1Cl | 8.89 |
| Cc1cc(OCCCc2c3n(c4c(-c5c(C)nn(C)c5C)c(Cl)ccc24)[C@H](C)CN(c2cccc4ccc(C(=O)O)cc24)C3=O)cc(C)c1Cl [Example 349] | 8.55 |
| Cc1cc(OCCCc2c3n(c4c(-c5c(C)nn(C)c5C)c(Cl)ccc24)[C@H](C)CN(c2cn(C)c4ccc([N+](=O)[O-])cc24)C3=O)cc(C)c1Cl | 8.96 |
| Cc1cc(OCCCc2c3n(c4c(-c5c(C)nn(C)c5C)c(Cl)ccc24)CCCN(c2cc4c(c(C(=O)O)c2)OCC4)C3=O)cc(C)c1Cl | 8.24 |
| Cc1cc(OCCCc2c3n(c4c(-c5c(C)nn(C)c5C)c(Cl)ccc24)CCCN(c2cc(C(=O)O)cc4c2cnn4CCN(C)C)C3=O)cc(C)c1Cl | 8.41 |
| Cc1cc(OCCCc2c3n(c4c(-c5c(C)nn(C)c5C)c(Cl)ccc24)[C@H](C)CN(c2cc(OCc4ccccc4)cc4cc(C(=O)O)n(C)c24)C3=O)cc(C)c1Cl [Example 345] | 8.46 |

Now let's try a different one.
Recorded result, COCCn1c(C(=O)O)cc2cc(C(C)C)cc(N3C[C@@H](C)n4c(c(CCCOc5cc(C)c(Cl)c(C)c5)c5ccc(Cl)c(-c6c(C)nn(C)c6C)c54)C3=O)c21 , pKi: 9.00
